target: D2 receptors (Chlorocebus aethiops); experiment: D2 receptor binding assay (3H-YM 09151-2 displacement); conditions: COS cells with recombinant D2 receptor; 0.5 nM 3H-YM 09151-2
Sequence (P52702 whole entry): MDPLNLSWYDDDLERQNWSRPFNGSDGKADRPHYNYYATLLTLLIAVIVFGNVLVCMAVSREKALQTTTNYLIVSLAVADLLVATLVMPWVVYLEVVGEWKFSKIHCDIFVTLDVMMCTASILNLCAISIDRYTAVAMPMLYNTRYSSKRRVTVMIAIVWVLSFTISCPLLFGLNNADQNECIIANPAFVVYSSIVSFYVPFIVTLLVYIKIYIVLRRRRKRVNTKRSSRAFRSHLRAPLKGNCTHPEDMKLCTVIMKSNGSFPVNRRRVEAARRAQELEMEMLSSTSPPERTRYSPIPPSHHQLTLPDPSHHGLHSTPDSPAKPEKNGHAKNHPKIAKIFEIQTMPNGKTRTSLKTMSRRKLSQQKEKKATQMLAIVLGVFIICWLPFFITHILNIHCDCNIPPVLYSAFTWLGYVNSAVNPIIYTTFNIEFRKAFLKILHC
Structures can show the parent of a compound that is named as a salt.
assay-metric: Ki (nM)

P: c1cnc(N2CCN(Cc3nc4c([nH]3)-c3ccccc3CC4)CC2)nc1 [Compound 1, dihydrochloride]
Q: CN(Cc1ccccc1)Cc1nc2c([nH]1)-c1ccccc1CC2 [Compound 2, dihydrochloride]
R: CN(Cc1ccccc1)Cc1nc2c([nH]1)-c1ccccc1OC2 [Compound 3, dihydrochloride]
Could you put the items above in increasing order of their Ki? Record the ranking as a list of labels in the requested order.
R, Q, P
